# TESTED TARGET: UniProt:Q14524
# EXPERIMENT NOTES: Qpatch automated patch-clamp, peak Nav1.5 current inhibition, 1 Hz sinus rate, ventricular condition (holding potential -100 mV)
# Assay type: cell-based
# APPLIED CONDITIONS: CHO-K1 cells stably expressing human Nav1.5, without ATX-II
pIC50: −log10 of the molar value.
MEASUREMENT TYPE: pIC50

{"MOLECULE": "CC(O)(CS(N)(=O)=O)c1cc(-c2nnn(Cc3cc(OC(F)(F)F)ccc3F)n2)ccc1F (single isomer, unassigned) [Example 6]", "pIC50": "< 4.52"}
{"MOLECULE": "CC(O)(CS(N)(=O)=O)c1ccc(F)c(-c2nnn(Cc3cc(OC(F)(F)F)ccc3F)n2)c1 (single isomer, unassigned) [Example 9]", "pIC50": "< 4.52"}
{"MOLECULE": "CC(c1cccc(-c2nnn(Cc3cc(OC(F)(F)F)ccc3F)n2)n1)C(CO)S(N)(=O)=O (single isomer, unassigned) [Example 34]", "pIC50": "< 4.52"}

For each of the items listed, what is its pIC50?
1. CC(C(C)(O)c1cccc(-c2nnn(Cc3cc(OC(F)(F)F)ccc3F)n2)n1)S(N)(=O)=O (single isomer, unassigned) [Example 16]
2. CC(O)(CS(N)(=O)=O)c1cccc(-c2ncn(Cc3cc(OC(F)(F)F)ccc3F)n2)n1 (racemic) [Rac-55 + 56]
3. CC(O)(CS(N)(=O)=O)c1cc(F)cc(-c2nnn(Cc3cc(OC(F)(F)F)ccc3F)n2)c1 (single isomer, unassigned) [Example 23]

Result:
4.80
< 4.52
< 4.52

Please report pIC50 for every entry that follows.
1. CC(O)(CS(N)(=O)=O)c1cccc(-c2nnn(Cc3c(F)ccc4c3OC(F)(F)O4)n2)n1 (single isomer, unassigned) [Example 4]
2. CC(C(C)(O)c1cccc(-c2nnn(Cc3cc(OC(F)(F)F)ccc3F)n2)n1)S(N)(=O)=O (single isomer, unassigned) [Example 15]
3. CC(O)(CS(N)(=O)=O)c1ccc(Cl)c(-c2nnn(Cc3cc(OC(F)(F)F)ccc3F)n2)c1 (single isomer, unassigned) [Example 7]
4. CC(O)(CS(N)(=O)=O)c1cccc(-c2ncn(Cc3cc(OC(F)(F)F)ccc3F)n2)n1 (single isomer, unassigned) [Example 55]
5. CC(O)(CS(N)(=O)=O)c1cccc(-c2ncn(Cc3cc(OC(F)(F)F)ccc3F)n2)n1 (single isomer, unassigned) [Example 56]
6. CC(C(C)(O)c1cccc(-c2nnn(Cc3cc(OC(F)(F)F)ccc3F)n2)n1)S(N)(=O)=O (single isomer, unassigned) [Example 14]

Result:
< 4.52
< 4.52
4.55
< 4.52
< 4.52
< 4.52

----------
Could you please report measured pIC50 for the items listed next?
# TESTED TARGET: human Nav1.5 (Homo sapiens (Human))
# Sequence (Q14524 whole entry): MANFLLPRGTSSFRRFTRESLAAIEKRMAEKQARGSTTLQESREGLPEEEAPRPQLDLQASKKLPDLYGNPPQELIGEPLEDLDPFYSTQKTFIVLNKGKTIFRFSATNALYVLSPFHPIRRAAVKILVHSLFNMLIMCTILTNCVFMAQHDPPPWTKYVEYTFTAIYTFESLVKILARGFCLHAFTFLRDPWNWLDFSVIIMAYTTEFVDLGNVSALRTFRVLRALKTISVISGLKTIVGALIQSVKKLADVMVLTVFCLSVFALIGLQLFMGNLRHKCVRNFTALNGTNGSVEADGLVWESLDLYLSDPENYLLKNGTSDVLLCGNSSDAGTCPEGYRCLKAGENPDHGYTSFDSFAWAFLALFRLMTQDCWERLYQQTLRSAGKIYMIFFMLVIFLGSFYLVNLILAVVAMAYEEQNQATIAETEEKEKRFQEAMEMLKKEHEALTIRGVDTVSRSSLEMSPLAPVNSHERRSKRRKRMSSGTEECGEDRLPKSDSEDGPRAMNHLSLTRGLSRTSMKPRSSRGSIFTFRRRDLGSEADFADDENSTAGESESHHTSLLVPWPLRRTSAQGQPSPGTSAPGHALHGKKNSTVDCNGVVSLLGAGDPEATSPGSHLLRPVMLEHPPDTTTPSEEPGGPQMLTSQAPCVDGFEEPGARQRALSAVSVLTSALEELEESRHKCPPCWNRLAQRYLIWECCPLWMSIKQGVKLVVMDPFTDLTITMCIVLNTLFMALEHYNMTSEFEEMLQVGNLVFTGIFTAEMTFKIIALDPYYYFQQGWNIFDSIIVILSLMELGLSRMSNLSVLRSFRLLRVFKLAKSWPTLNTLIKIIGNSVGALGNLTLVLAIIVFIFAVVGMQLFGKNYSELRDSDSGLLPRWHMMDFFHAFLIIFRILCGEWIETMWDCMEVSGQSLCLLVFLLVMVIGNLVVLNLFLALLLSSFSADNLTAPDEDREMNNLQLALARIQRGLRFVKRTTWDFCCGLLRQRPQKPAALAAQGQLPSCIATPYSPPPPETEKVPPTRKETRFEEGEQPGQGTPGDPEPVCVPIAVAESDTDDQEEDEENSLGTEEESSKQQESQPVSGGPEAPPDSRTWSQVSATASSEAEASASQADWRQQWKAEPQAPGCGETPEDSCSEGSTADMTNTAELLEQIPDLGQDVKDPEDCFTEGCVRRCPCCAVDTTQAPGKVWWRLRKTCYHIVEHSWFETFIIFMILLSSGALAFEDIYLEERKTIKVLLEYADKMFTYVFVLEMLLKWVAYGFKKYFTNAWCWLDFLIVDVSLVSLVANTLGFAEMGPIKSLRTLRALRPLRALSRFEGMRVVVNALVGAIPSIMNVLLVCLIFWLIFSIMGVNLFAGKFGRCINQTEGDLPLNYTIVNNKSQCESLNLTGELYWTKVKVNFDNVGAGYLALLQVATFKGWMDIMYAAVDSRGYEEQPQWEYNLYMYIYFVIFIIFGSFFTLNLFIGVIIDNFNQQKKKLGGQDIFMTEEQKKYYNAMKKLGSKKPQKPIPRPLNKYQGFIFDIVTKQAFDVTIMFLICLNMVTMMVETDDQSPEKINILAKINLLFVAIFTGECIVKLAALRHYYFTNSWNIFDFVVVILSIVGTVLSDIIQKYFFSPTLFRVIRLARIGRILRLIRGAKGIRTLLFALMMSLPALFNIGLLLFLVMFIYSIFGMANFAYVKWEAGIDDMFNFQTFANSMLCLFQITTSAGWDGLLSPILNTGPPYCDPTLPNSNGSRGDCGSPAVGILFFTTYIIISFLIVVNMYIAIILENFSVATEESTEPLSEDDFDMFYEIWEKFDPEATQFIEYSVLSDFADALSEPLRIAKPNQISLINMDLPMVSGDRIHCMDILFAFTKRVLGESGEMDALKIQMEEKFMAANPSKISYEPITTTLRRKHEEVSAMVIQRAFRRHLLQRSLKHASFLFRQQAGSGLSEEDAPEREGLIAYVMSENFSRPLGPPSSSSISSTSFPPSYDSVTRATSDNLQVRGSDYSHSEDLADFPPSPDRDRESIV
# EXPERIMENT NOTES: Qpatch automated patch-clamp, peak Nav1.5 current inhibition, 5-Hz AF-like assay (holding potential -85 mV)
# Type: cell-based
# APPLIED CONDITIONS: CHO-K1 cells stably expressing human Nav1.5, holding potential -85 mV, Table 5, read-out: Nav1.5 IC50 (5 Hz, AF Rate)
Answers are plain numbers, as −log10 of the molar value.

{"MOLECULE": "CC(O)(CS(N)(=O)=O)c1cccc(-c2ncn(Cc3cc(OC(F)(F)F)ccc3F)n2)n1 (racemic) [Rac-55 + 56]", "OBSERVED VALUE": 5.35}
{"MOLECULE": "NS(=O)(=O)CC(O)(c1cccc(-c2ccn(Cc3cc(OC(F)(F)F)ccc3F)n2)n1)C(F)(F)F (racemic) [Example 39]", "OBSERVED VALUE": 5.36}
{"MOLECULE": "NS(=O)(=O)CC(O)c1cccc(-c2ccn(Cc3cc(OC(F)(F)F)ccc3F)n2)n1 (racemic) [Example 36]", "OBSERVED VALUE": 5.43}

// next entry
Q: Give the reported value of pIC50 for this record: CC(O)(CS(N)(=O)=O)c1cccc(-c2nnn(Cc3cc(C(F)(F)F)ccc3F)n2)n1 (single isomer, unassigned) [Example 19]
Result: 5.30
